- Tested on: 556581-035-R-J1-PDC complex spheroid growth
- method_summary: Anticancer human tumor 556581-035-R-J1-PDC patient-derived ovarian carcinoma cell line growth inhibition [AhR]
- test_parameters: second compound 3.16 µM; first compound 0.00316 µM; stronger effect = lower value
Each record here notes measured viability, T/C.
Answer in %, number only, no unit symbol.

compound="CC1COCCN1c1cc(-c2ccnn2C)c2ccnc(-c3ccn[nH]3)c2n1 (centres undefined) + Cc1ccccc1N=Nc1ccc(NC(=O)c2ccnn2C)c(C)c1" observed_property="viability, T/C" experimental_value=105
compound="Cn1ncnc1C1c2n[nH]c(=O)c3cc(F)cc(c23)NC1c1ccc(F)cc1 (centres undefined) + Cc1cncc(-c2nc(NCCc3c[nH]c4ccccc34)c3ncn(C(C)C)c3n2)c1" observed_property="viability, T/C" experimental_value=97.7
compound="Cn1ncnc1C1c2n[nH]c(=O)c3cc(F)cc(c23)NC1c1ccc(F)cc1 (centres undefined) + CC(CO)NC(=O)c1cc(-c2ccc(Cl)cc2)nn(-c2cnn(C)c2)c1=O" observed_property="viability, T/C" experimental_value=105
compound="CC1COCCN1c1cc(-c2ccnn2C)c2ccnc(-c3ccn[nH]3)c2n1 (centres undefined) + Cc1cncc(-c2nc(NCCc3c[nH]c4ccccc34)c3ncn(C(C)C)c3n2)c1" observed_property="viability, T/C" experimental_value=101
compound="CC[C@@]1(O)C(=O)OCc2c1cc1n(c2=O)Cc2cc3c(CN(C)C)c(O)ccc3nc2-1 + CC(CO)NC(=O)c1cc(-c2ccc(Cl)cc2)nn(-c2cnn(C)c2)c1=O" observed_property="viability, T/C" experimental_value=91.4

Memo: Nc1ncn(C2CC(O)C(CO)O2)c(=O)n1 (centres undefined) + CC(CO)NC(=O)c1cc(-c2ccc(Cl)cc2)nn(-c2cnn(C)c2)c1=O , reported viability, T/C: 95.4

Memo: Nc1ncn(C2CC(O)C(CO)O2)c(=O)n1 (centres undefined) + Cc1ccccc1N=Nc1ccc(NC(=O)c2ccnn2C)c(C)c1 , reported viability, T/C: 86.7

Memo: CC1COCCN1c1cc(-c2ccnn2C)c2ccnc(-c3ccn[nH]3)c2n1 (centres undefined) + CC(CO)NC(=O)c1cc(-c2ccc(Cl)cc2)nn(-c2cnn(C)c2)c1=O , reported viability, T/C: 114

Memo: Nc1ncn(C2CC(O)C(CO)O2)c(=O)n1 (centres undefined) + Cc1cncc(-c2nc(NCCc3c[nH]c4ccccc34)c3ncn(C(C)C)c3n2)c1 , reported viability, T/C: 98.2

* * *

Each record here notes measured viability, T/C.
- Test system: 556581-035-R-J1-PDC complex spheroid growth
- method_summary: Anticancer human tumor 556581-035-R-J1-PDC cell line growth inhibition [AhR];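 further: compound exposure lasted 7 days; 100% = DMSO vehicle control growth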
- test_parameters: second compound 10 µM; first compound 0.1 µM; stronger effect = lower value

molecule="NS(=O)(=O)OCC1CC(n2ccc3c(NC4CCc5ccccc54)ncnc32)CC1O (configuration not stated) + CC(CO)NC(=O)c1cc(-c2ccc(Cl)cc2)nn(-c2cnn(C)c2)c1=O" experimental_value=109%
molecule="COc1cc(Nc2ncc3c(n2)-c2ccc(Cl)cc2C(c2c(F)cccc2OC)=NC3)ccc1C(=O)O + Cc1ccccc1N=Nc1ccc(NC(=O)c2ccnn2C)c(C)c1" experimental_value=61.9%
molecule="Nc1ccn(C2OC(CO)C(O)C2(F)F)c(=O)n1 (configuration not stated) + CC(CO)NC(=O)c1cc(-c2ccc(Cl)cc2)nn(-c2cnn(C)c2)c1=O" experimental_value=34.4%
molecule="CC1COCCN1c1cc(-c2ccnn2C)c2ccnc(-c3ccn[nH]3)c2n1 (configuration not stated) + CC(CO)NC(=O)c1cc(-c2ccc(Cl)cc2)nn(-c2cnn(C)c2)c1=O" experimental_value=68.6%
molecule="O=C(c1cc(Cc2n[nH]c(=O)c3ccccc23)ccc1F)N1CCN(C(=O)C2CC2)CC1 + Cc1cncc(-c2nc(NCCc3c[nH]c4ccccc34)c3ncn(C(C)C)c3n2)c1" experimental_value=95.4%

Memo: CC[C@@]1(O)C(=O)OCc2c1cc1n(c2=O)Cc2cc3c(CN(C)C)c(O)ccc3nc2-1 + CC(CO)NC(=O)c1cc(-c2ccc(Cl)cc2)nn(-c2cnn(C)c2)c1=O , reported viability, T/C: 46.5%
